# assay_info: Pharmacokinetics in rats
# Format: in vivo, SD rats
# particulars: in vivo, 3 mg/kg; Rat PK (IV, 3 mpk), single injection, plasma, Formulation A
reported_property: AUC(0-inf)
Please state the number and follow it with the unit.

stdin: Endpoint output: AUC(0-inf) of [2H]C1([2H])OC(=O)[C@](O)(CC)c2cc3n(c(=O)c21)Cc1c-3nc2cc(F)c(C)c3c2c1[C@@H](NC(=O)CO)CC3 . Value?
stdout: 218 ng·h/mL

----------
# assay_info: Pharmacokinetics in rats
# Type: in vivo, SD rats
# particulars: in vivo, 3 mg/kg; Rat PK (IV, 3 mpk), single injection, plasma, Formulation A
reported_property: half-life

stdin: Endpoint output: half-life of [2H]C1([2H])OC(=O)[C@](O)(CC)c2cc3n(c(=O)c21)Cc1c-3nc2cc(F)c(C)c3c2c1[C@@H](NC(=O)CO)CC3 . Value?
stdout: 39.7 min

----------
# System: NCI-N87 (human gastric cancer cells)
# assay_info: In vitro antitumor activity (cell proliferation inhibition, CellTiter-Glo)
# Format: cell-based
# particulars: 48 hours of incubation
Listed here: items and their measured pIC50.
Note on pIC50: it is the negative log10 of concentration, concentration in mol/L.

Take a look at these entries with their results.
>  <compound>
[2H]C1([2H])OC(=O)[C@](O)(CC)c2cc3n(c(=O)c21)Cc1c-3nc2cc(F)c(C)c3c2c1[C@@H](NC(=O)C[C@@H](C)O)CC3 [Compound 5]

>  <reported_property>
pIC50

>  <measured_number>
8.04

$$$$
>  <compound>
[2H]C1([2H])OC(=O)[C@](O)(CC)c2cc3n(c(=O)c21)Cc1c-3nc2cc(F)c(C)c3c2c1[C@@H](NC(=O)C[C@H](C)O)CC3 [Compound 6]

>  <reported_property>
pIC50

>  <measured_number>
7.87

$$$$
>  <compound>
[2H]C1([2H])OC(=O)[C@](O)(CC)c2cc3n(c(=O)c21)Cc1c-3nc2cc3c(cc2c1CCCO)OCO3 [Compound 12]

>  <reported_property>
pIC50

>  <measured_number>
8.14

$$$$
>  <compound>
[2H]C1([2H])OC(=O)[C@](O)(CC)c2cc3n(c(=O)c21)Cc1c-3nc2cc(F)c(C)c3c2c1[C@@H](NC(=O)[C@@H](O)C1CC1)CC3 [Compound 4]

>  <reported_property>
pIC50

>  <measured_number>
8.39

$$$$
>  <compound>
[2H]C1([2H])OC(=O)[C@](O)(CC)c2cc3n(c(=O)c21)Cc1c-3nc2cc(F)c(C)c3c2c1[C@@H](NC(=O)CO)CC3 [Compound 2]

>  <reported_property>
pIC50

>  <measured_number>
8.14

$$$$

stdin: Endpoint output: pIC50 of [2H]C1([2H])OC(=O)[C@](O)(CC)c2cc3n(c(=O)c21)Cc1c-3nc2cc(F)c(C)c3c2c1[C@@H](NC(=O)[C@H](O)C1CC1)CC3 [Compound 3] . Value?
stdout: 8.36

----------
# assay_info: Pharmacokinetics in rats
# Format: in vivo, SD rats
# particulars: both sexes, SD, 3 mg/kg; Rat PK (IV, 3 mpk), single injection, plasma, Formulation A
reported_property: clearance (mL/min/kg)
Write the value in mL/min/kg as a bare number.

stdin: Endpoint output: clearance of CC[C@@]1(O)C(=O)OCc2c1cc1n(c2=O)Cc2c-1nc1cc(F)c(C)c3c1c2[C@@H](NC(=O)CO)CC3 . Value?
stdout: 144
